biological target: Glutamate carboxypeptidase 2 (Homo sapiens); experiment: Binding affinity to PSMA in human LNCaP cells assessed as cell surface binding in phosphate-buffered saline buffer; format: cell-based
Sequence (Q04609 whole entry): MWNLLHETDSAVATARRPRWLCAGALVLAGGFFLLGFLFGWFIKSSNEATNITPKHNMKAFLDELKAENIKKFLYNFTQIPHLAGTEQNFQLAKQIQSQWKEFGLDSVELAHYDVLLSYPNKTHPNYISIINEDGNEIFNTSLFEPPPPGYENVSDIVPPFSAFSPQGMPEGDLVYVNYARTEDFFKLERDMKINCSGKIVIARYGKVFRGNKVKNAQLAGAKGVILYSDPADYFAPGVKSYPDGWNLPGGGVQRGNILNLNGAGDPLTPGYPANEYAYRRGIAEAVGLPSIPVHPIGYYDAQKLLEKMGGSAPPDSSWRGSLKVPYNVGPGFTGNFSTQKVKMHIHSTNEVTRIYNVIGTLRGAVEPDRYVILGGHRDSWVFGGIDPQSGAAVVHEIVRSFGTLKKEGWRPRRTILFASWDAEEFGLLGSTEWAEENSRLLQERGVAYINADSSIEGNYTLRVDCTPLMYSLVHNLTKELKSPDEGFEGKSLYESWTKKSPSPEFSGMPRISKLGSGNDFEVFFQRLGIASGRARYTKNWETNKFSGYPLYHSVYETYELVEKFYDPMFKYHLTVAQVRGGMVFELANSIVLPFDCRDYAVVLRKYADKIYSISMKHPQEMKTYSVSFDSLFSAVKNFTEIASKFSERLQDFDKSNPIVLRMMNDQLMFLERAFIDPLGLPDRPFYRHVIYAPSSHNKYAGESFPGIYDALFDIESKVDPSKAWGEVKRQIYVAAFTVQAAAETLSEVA

{"compound": "CC1(C)C(/C=C/C2=C(Oc3ccc(S(=O)(=O)O)cc3)C(=C/C=C3/N(CCCCS(=O)(=O)O)c4ccc(S(=O)(=O)[O-])cc4C3(C)C)/CCC2)=[N+](CCCCCC(=O)NCCCCCC(=O)NC23CC4(CCC=O)CC(CCC(=O)N[C@@H](CCP(=O)(O)CC(CCC(=O)O)C(=O)O)C(=O)O)(CC(CCC(=O)N[C@@H](CCP(=O)(O)CC(CCC(=O)O)C(=O)O)C(=O)O)(C4)C2)C3)c2ccc(S(=O)(=O)O)cc21 (some centres undefined)", "units": "nM", "Kd": 1.9}
{"compound": "CC1(C)C(/C=C/C2=C(Oc3ccc(S(=O)(=O)O)cc3)C(=C/C=C3/N(CCCCS(=O)(=O)O)c4ccc(S(=O)(=O)O)cc4C3(C)C)/CCC2)=[N+](CCCCCC(=O)NCCCCCC(=O)NC23CC4(CCC(=O)N[C@@H](CCP(=O)(O)CC(CCC(=O)O)C(=O)O)C(=O)O)CC(CCC(=O)N[C@@H](CCP(=O)(O)CC(CCC(=O)O)C(=O)O)C(=O)O)(CC(CCC(=O)N[C@@H](CCP(=O)(O)CC(CCC(=O)O)C(=O)O)C(=O)O)(C4)C2)C3)c2ccc(S(=O)(=O)[O-])cc21 (some centres undefined)", "units": "nM", "Kd": 0.5}
{"compound": "CC1(C)C(/C=C/C2=C(Oc3ccc(S(=O)(=O)[O-])cc3)C(=C/C=C3/Nc4ccccc4C3(C)C)/CCC2)=[N+](CCCCCC(=O)NC23CC4(CCC(=O)N[C@@H](CCP(=O)(O)CC(CCC(=O)O)C(=O)O)C(=O)O)CC(CCC(=O)N[C@@H](CCP(=O)(O)CC(CCC(=O)O)C(=O)O)C(=O)O)(CC(CCC(=O)N[C@@H](CCP(=O)(O)CC(CCC(=O)O)C(=O)O)C(=O)O)(C4)C2)C3)c2ccccc21 (some centres undefined)", "units": "nM", "Kd": 0.3}
{"compound": "CC(C)(C)OC(=O)NCCCCCC(=O)NC12CC3(CCC(=O)N[C@@H](CCP(=O)(O)CC(CCC(=O)O)C(=O)O)C(=O)O)CC(CCC(=O)N[C@@H](CCP(=O)(O)CC(CCC(=O)O)C(=O)O)C(=O)O)(CC(CCC(=O)N[C@@H](CCP(=O)(O)CC(CCC(=O)O)C(=O)O)C(=O)O)(C3)C1)C2 (some centres undefined)", "units": "nM", "Kd": 0.5}
